experiment: Thermodynamic solubility of the compound at pH 4; assay type: physicochemical; details: buffer, read-out: Therm_solubility
# Lookup of reported solubility thermodynamic keyed by entry
MEASUREMENT_TYPE: solubility thermodynamic

* Cn1c(=O)c2c(nc3n2CCN(CCc2cccc(Br)c2)C3)n(C)c1=O | < 0.5 µg/mL
* Cn1c(=O)c2c(nc3n2CCN(CC(O)c2ccccc2)C3)n(C)c1=O (stereo not given) | 70 µg/mL
* Cn1c(=O)c2c(nc3n2CCN(CCc2cc(C(F)(F)F)ccc2F)C3)n(C)c1=O | < 0.5 µg/mL
* Cn1c(=O)c2c(nc3n2CCN(CCOc2ccccc2F)C3)n(C)c1=O | < 0.5 µg/mL
* Cn1c(=O)c2c(nc3n2CCN(CCc2ccc4c(c2)OCO4)C3)n(C)c1=O | 1 µg/mL
* Cn1c(=O)c2c(nc3n2CCN(CCOc2ccccc2)C3)n(C)c1=O | 60 µg/mL
* Cn1c(=O)c2c(nc3n2CCN(CCc2ccccc2Br)C3)n(C)c1=O | < 0.5 µg/mL
* Cn1c(=O)c2c(nc3n2CCN(Cc2csc(-c4ccc(C(F)(F)F)cc4)n2)C3)n(C)c1=O | < 0.5 µg/mL
* Cn1c(=O)c2c(nc3n2CCN(CCCn2cccc2)C3)n(C)c1=O | < 200 µg/mL
* Cn1c(=O)c2c(nc3n2CCN(C2CCc4ccccc42)C3)n(C)c1=O (racemic) | 1 µg/mL
* Cn1c(=O)c2c(nc3n2CCN(C2CCN(Cc4ccccc4)CC2)C3)n(C)c1=O | > 1500 µg/mL
* Cn1c(=O)c2c(nc3n2CCN(CCOc2cccc(F)c2)C3)n(C)c1=O | < 0.5 µg/mL
* Cn1c(=O)c2c(nc3n2CCN(CCCc2cccc(Br)c2)C3)n(C)c1=O | < 0.5 µg/mL
* COc1ccc(Br)cc1CCN1CCn2c(nc3c2c(=O)n(C)c(=O)n3C)C1 | < 0.5 µg/mL
* Cn1c(=O)c2c(nc3n2CCN(CCn2cccc2)C3)n(C)c1=O | 1500 µg/mL
